Documented solubility thermodynamic across a set of molecules
# protocolDetails: Solubility in 0.3 M acetate buffer at pH 5
# Type: physicochemical
Please give a number only; it is taken to be in mM.

What value of solubility thermodynamic has been reported for the following molecule? `O=C(CCOCCOCCO)Oc1ccc2c3c1O[C@H]1C(=O)CC[C@@]4(O)[C@@H](C2)N(CC2CC2)CC[C@]314`
629

Field entry: `O=C(NCCOCCOCCO)Oc1ccc2c3c1O[C@H]1C(=O)CC[C@@]4(O)[C@@H](C2)N(CC2CC2)CC[C@]314`
1040

Field entry: O=C1CC[C@@]2(O)[C@H]3Cc4ccc(O)c5c4[C@@]2(CCN3CC2CC2)[C@H]1O5 [NALTREXONE]
338

Field entry: `COCCOCCOCCC(=O)Oc1ccc2c3c1O[C@H]1C(=O)CC[C@@]4(O)[C@@H](C2)N(CC2CC2)CC[C@]314`
952

Field entry: `COCCOCCOCCNC(=O)Oc1ccc2c3c1O[C@H]1C(=O)CC[C@@]4(O)[C@@H](C2)N(CC2CC2)CC[C@]314`
796
